Below: a set of entries, each annotated with reported log10(IC50).
# SYSTEM: Rat NOS-1 (nNOS) (Rattus norvegicus, UniProt P29476)
# Sequence (P29476 whole entry): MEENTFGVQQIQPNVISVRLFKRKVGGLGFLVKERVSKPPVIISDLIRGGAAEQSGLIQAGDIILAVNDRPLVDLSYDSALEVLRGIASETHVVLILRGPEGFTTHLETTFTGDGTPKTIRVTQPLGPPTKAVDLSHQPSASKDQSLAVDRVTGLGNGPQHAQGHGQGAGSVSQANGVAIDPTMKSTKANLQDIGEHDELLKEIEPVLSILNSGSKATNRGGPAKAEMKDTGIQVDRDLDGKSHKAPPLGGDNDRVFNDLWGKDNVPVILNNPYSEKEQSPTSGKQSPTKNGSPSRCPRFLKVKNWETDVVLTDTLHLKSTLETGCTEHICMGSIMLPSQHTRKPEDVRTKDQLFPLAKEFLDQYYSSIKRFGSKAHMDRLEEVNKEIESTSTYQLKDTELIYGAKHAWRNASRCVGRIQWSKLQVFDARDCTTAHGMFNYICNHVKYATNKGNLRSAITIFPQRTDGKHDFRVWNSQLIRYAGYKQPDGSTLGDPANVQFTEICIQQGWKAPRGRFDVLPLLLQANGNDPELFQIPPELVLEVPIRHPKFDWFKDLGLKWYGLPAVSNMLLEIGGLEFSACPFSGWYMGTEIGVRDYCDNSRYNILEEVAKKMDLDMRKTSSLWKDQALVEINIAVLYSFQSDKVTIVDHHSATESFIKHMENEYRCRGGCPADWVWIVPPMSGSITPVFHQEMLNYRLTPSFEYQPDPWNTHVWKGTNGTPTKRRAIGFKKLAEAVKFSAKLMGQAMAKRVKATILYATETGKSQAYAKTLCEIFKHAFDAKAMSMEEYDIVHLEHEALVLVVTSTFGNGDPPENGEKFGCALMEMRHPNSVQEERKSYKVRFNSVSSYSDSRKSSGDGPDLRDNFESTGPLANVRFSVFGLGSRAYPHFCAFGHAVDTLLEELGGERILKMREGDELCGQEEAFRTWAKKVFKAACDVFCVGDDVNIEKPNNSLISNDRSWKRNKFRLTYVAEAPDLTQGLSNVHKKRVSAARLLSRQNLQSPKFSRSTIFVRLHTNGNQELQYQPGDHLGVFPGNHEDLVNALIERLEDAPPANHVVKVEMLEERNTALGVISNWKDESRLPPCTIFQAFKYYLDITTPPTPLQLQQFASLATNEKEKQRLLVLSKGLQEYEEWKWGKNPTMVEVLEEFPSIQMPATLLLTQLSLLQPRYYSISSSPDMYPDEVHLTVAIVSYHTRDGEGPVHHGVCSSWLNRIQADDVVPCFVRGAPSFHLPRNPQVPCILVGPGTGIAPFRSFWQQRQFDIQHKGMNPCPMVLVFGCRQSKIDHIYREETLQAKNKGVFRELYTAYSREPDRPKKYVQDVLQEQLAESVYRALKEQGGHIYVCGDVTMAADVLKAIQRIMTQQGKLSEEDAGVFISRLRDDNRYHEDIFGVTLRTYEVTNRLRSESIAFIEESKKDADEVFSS
# ASSAY DETAILS: Rat NOS-1 (nNOS) assay ([3H]-arginine to [3H]-citrulline conversion)
# EXPERIMENTAL CONTEXT: recombinant rat nNOS, 20 min at 37° C., 2 μM L-[3H]arginine; * mean of 3 determinations
PARAMETER: log10(IC50) (log10 of the value in nM)

{"COMPOUND": "O=c1cc(OCCC2CCCCN2)c2cc(Cl)ccc2o1 (stereo not drawn)", "SYSTEM": "Rat NOS-1 (nNOS) (Rattus norvegicus, UniProt P29476)", "log10(IC50)": 3.00}
{"COMPOUND": "Cc1ccc2oc(=O)cc(OCCCN)c2c1", "SYSTEM": "Rat NOS-1 (nNOS) (Rattus norvegicus, UniProt P29476)", "log10(IC50)": 2.81}
{"COMPOUND": "CN(C)CCCOc1cc(=O)oc2ccc(Cl)cc12", "SYSTEM": "Rat NOS-1 (nNOS) (Rattus norvegicus, UniProt P29476)", "log10(IC50)": 3.90}
{"COMPOUND": "NCCCOc1cc(=O)oc2ccc(F)cc12", "SYSTEM": "Rat NOS-1 (nNOS) (Rattus norvegicus, UniProt P29476)", "log10(IC50)": 3.20}
{"COMPOUND": "N=C(N)NCCCOc1cc(=O)oc2ccc(Cl)cc12", "SYSTEM": "Rat NOS-1 (nNOS) (Rattus norvegicus, UniProt P29476)", "log10(IC50)": 2.70}
{"COMPOUND": "CNCCCOc1cc(=O)oc2ccc(Cl)cc12", "SYSTEM": "Rat NOS-1 (nNOS) (Rattus norvegicus, UniProt P29476)", "log10(IC50)": 2.72}
